FYI, the data here is from patent US9555039B2.

# Test system: A2780 cells
# assay_remarks: In-vitro cell proliferation assay (SRB, 72 hours)
# Type: cell-based
# experimental_context: Homo sapiens, sulforhodamine B (SRB) assay
result_type: IC50 (nM)

# mol, recorded_value
records = [
    ("O=C(NCCCCC1CCN(C(=O)c2ccc(F)cc2F)CC1)c1cc2ccncc2s1", 13.5),
    ("O=C(NCCCCC1CCN(C(=O)c2ccc(Cl)cc2Cl)CC1)c1cc2ccncc2s1", 86.1),
    ("O=C(NCCCCC1CCN(C(=O)c2ccc(C(F)(F)F)nc2)CC1)c1cc2cnccc2[nH]1", 47.6),
    ("O=C(NCCCCC1CCN(C(=O)c2cc(Cl)ccc2Cl)CC1)c1cc2ccncc2s1", 7.1),
    ("Cn1cnc(C(=O)N2CCC(CCCCNC(=O)c3cc4cnccc4[nH]3)CC2)c1", 55),
    ("O=C(NCCCCC1CCN(C(=O)c2cccc(Cl)c2)CC1)c1ccc2nccn2c1", 22.3),
    ("COc1ncc(Cl)cc1C(=O)N1CCC(CCCCNC(=O)c2cc3cnccc3[nH]2)CC1", 3.3),
    ("O=C(NCCCCC1CCN(C(=O)c2cc3cnccc3[nH]2)CC1)c1cc2cnccc2[nH]1", 11.3),
]
